Test system: Noggin (protein binding on small-molecule microarray)
test_summary: small molecules binding Noggin protein – biochemical, 635/667 nm fluorescence, primary screen (AID 1095);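 note: score merges 667 nm feature fluorescence with signal to noise over triplicate slides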
condition: 635 nm fluorescence, higher = more signal
Provide the recorded composite z-score for the entries that follow.
Give bare numbers.

smiles_record	composite z-score
O=C(CS)NCCCCCNC(=O)[C@@H]1C[C@@H]2C(=O)NCC(=O)N2[C@@H]1c1cccc(OCCO)c1	0.271
COc1ccc(C#Cc2ccc3c(c2)[C@]2(C(=O)N3)[C@H](c3ccc(O)cc3)N3[C@H](c4ccccc4)[C@H](c4ccccc4)OC(=O)[C@H]3[C@@H]2C(=O)N2CCc3cc(OC)c(OC)cc3C2)cc1	1.68

Provide reported composite z-score for each item, in the same order as listed.
1. C=CCN1C(=O)[C@]2(O[C@H](CCO)[C@@H]([Si](C)(C)c3ccc(OC)cc3)[C@@H]2C)c2cc(N(C=O)c3ccccc3)ccc21
2. C#CCN(C/C=C/c1ccccc1)[C@H](CO)c1ccccc1

Output line:
1. -0.0888
2. 1.12

----------
Please provide measured composite z-score for the entries that follow.
measurement_target: Torsin-1A-interacting protein 2 (Homo sapiens) (UniProt Q8NFQ8)
Sequence (Q8NFQ8 whole entry, looked up): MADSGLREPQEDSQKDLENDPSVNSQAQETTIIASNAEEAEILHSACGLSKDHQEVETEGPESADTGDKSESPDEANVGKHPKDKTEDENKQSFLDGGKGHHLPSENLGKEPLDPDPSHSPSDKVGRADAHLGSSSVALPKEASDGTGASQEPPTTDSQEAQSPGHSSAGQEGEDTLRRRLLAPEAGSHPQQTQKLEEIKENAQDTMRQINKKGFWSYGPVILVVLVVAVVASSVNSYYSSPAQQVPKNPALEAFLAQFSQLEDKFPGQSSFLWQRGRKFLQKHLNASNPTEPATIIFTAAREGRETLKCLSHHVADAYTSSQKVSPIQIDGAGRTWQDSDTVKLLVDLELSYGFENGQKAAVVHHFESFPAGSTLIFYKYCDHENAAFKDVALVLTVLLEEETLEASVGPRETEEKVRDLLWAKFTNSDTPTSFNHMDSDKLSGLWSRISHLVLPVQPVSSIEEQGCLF
test_summary: small molecules binding lysate-expressed LULL1 – cell lysate, human LULL1 lysate, 635/667 nm fluorescence, primary screen (AID 1092);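 note: probe is lysate of COS7 cells overexpressing human LULL1; score merges per-feature 667 nm fluorescence with signal-to-noise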
condition: small-molecule microarray, hLULL1 lysate binding, 635 nm fluorescence; higher = more signal
Give bare numbers.

molecule	measurement_target	composite z-score
CCN(CC)c1ccc(N2CC=CC34O[C@@H]5C=CCOC(=O)[C@@H]5[C@H]3C(=O)N(CCCCCCO)[C@@H]4C2=O)cc1 (some centres not stated)	Torsin-1A-interacting protein 2 (Homo sapiens) (UniProt Q8NFQ8)	2.63
COC(=O)c1c2oc(c1C(=O)OC)C(=O)N[C@@H](C(C)C)Cn1cc(nn1)C1(CCCCC1)NC(=O)N[C@H](CO)CC2	Torsin-1A-interacting protein 2 (Homo sapiens) (UniProt Q8NFQ8)	1.41
COC(=O)[C@@]1(Cc2ccccc2)[C@H]2c3cc(C(=O)N(C)C)n(CCc4c[nH]c5ccc(O)cc45)c3C[C@H]2CN1C(=O)c1ccccc1	Torsin-1A-interacting protein 2 (Homo sapiens) (UniProt Q8NFQ8)	3.11

Go through the items and report each one's composite z-score.
1. Cc1ccc([C@H]2C(C(=O)O)=CCN2S(=O)(=O)c2ccc(C)cc2)cc1
2. CCCC1(C(=O)OC)C=C2C(=C(c3ccccc3)C(=O)C2C)CN1 (configuration not stated)

Output line:
1: 2.82; 2: 1.64

----------
test_summary: ATP-based viability of Huh7 replicon cells – cell-based, CellTiter-Glo luminescence, basal, 48 h, cytotoxicity control for HCV replication inhibitor project, primary screen (AID 1143);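 note: Huh7 hepatoma cells carrying a hepatitis C replication reporter with no stimulus; test concentration not given here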
condition: higher = more signal, called active from +8 up or from −8 down
result_type: z-score
Give bare numbers.

molecule	experimental_value
COC(=O)[C@@]1(Cc2ccc(F)cc2)[C@H]2c3cc(C(=O)N(C)C)n(Cc4cc(C)n(C)n4)c3C[C@H]2CN1C(=O)c1ccccc1	-0.617
COC(=O)c1c2oc(c1C(=O)OC)C(=O)NC1(CCCCC1)c1cn(nn1)C[C@H](Cc1ccccc1)NC(=O)N[C@H](CO)CC2	-0.275
CCOC(=O)C1=C[C@@H](C(C)C)N(S(=O)(=O)c2ccc(C)cc2)[C@H]1c1ccccc1F	-2.77

Note: attention shifts to another entry.
Input line: Look at this molecule and give its reported z-score. O=C1OCCC=C[C@H]2OC34C=CCN(c5ccc(Cl)cc5)C(=O)[C@H]3N(CCCO)C(=O)[C@@H]4C12 (some centres undefined)
Output line: -2.24
